Exercise: for every item that follows, state its recorded HUMAN […] (% REMAINING AFTER 30 MINUTES).
Experiment: In vitro human microsomal stability assay
Type: in vitro ADME
Conditions: human liver microsomes, 0.5 μM substrate, 0.25 mg/mL microsomal protein, pH 7.4, 37° C., NADPH, 30 minutes
Give bare numbers, in %.

Illustrative cases are given below, each with its answer.
OC(C1CCc2cccnc21)C1(c2cccc(C(F)(F)F)c2)CCC1 (stereo not shown): 0.39
C[C@]1(O)C[C@](c2cc(C(F)(F)F)ccn2)([C@H](O)c2ccccn2)C1 (relative stereo): 83

We now examine a further compound.
Fill in: HUMAN […] (% REMAINING AFTER 30 MINUTES) of OC(C1CCc2cccnc21)C1(c2ccccc2OC(F)(F)F)CCC1 (stereo not shown) is ___ 0.02

###

Test: In vitro human microsomal stability assay
Type: in vitro ADME
Conditions: human, microsomes, 0.5 h, 0.5 μM, pH 7.4
Exercise: for every item that follows, state its recorded HUMAN MICROSOMAL STABILITY (% REMAINING AFTER 30 MINUTES).
Give bare numbers, in %.

Illustrative cases are given below, each with its answer.
OC(C1CCc2cccnc21)C1(c2ccc(OC(F)(F)F)cc2)CCC1 (centres unmarked) [Example 176]: 20
OC(C1CCc2cccnc21)C1(c2cccc(C(F)(F)F)c2)CCC1 (centres unmarked): 0.18
OC(c1ccccn1)C1(c2cccc(C(F)(F)F)c2)CC2(C1)OCCO2 (centres unmarked): 45
O[C@H](c1ncccn1)C1(c2ccc(Cl)c(Cl)c2)CCC1: 51

Fill in: HUMAN MICROSOMAL STABILITY (% REMAINING AFTER 30 MINUTES) of O=C1CC(c2cc(C(F)(F)F)ccn2)(C(O)c2ccccn2)C1 (centres unmarked) is ___ 78

###

Molecular target: human TRPV3 (Homo sapiens)
Construct: expressed in transfected cells
Sequence (Q8NET8 whole entry): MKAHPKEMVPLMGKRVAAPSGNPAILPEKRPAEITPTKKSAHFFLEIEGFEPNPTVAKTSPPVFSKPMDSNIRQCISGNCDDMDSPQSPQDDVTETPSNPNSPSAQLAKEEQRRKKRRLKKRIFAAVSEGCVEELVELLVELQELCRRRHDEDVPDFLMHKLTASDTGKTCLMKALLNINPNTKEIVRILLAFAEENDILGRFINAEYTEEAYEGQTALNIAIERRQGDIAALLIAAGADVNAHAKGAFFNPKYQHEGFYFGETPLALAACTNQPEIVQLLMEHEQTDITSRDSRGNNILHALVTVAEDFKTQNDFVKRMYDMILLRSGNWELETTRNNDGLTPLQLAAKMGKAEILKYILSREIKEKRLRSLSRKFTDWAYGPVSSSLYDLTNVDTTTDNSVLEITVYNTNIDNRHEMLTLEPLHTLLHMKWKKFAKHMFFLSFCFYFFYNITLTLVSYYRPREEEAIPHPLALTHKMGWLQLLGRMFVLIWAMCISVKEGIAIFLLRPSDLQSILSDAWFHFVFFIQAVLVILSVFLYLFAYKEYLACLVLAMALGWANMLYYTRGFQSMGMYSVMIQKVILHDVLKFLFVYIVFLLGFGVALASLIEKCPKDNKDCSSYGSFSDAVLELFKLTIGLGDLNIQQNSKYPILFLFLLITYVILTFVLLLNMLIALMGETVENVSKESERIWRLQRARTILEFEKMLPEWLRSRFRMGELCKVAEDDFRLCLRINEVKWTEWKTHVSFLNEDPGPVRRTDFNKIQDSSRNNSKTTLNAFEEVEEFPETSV
Assay: In vitro antagonism of recombinant human TRPV3 activation (FLIPR Tetra calcium assay)
Format: cell-based
Conditions: HEK293 cells stably expressing human TRPV3; agonist 2-APB at 80 μM; actual measured value shown parenthetically; in most cases average of at least two runs; read-out: IC50
// classify: if (IC50 < 0.8 µM) Condition met else Condition not met

Example cases with answers are listed next.
O=C1CC(c2cccc(OC(F)(F)F)c2)([C@@H](O)c2ccccn2)C1 (single isomer, unassigned) [Example 257]: Condition not met
O[C@H](c1ccccn1)C1(c2ccc(OC(F)(F)F)cc2)CC(F)(F)C1 [Example 128]: Condition met
O=C1CC(c2cccc(OC(F)(F)F)c2)([C@H](O)c2ccccn2)C1 (single isomer, unassigned) [Example 256]: Condition not met
OC1CC(c2ccc(Cl)c(Cl)c2)(C(O)c2ccccn2)C1 (single isomer, unassigned) [Example 119]: Condition met
OC(c1ccccn1)C1(C2CCCc3ccccc32)CCC1 (stereo not drawn) [Example 56]: Condition not met
OC(c1ccccn1)C1(c2cccc(C(F)(F)F)n2)CCC1 (stereo not drawn) [Example 234]: Condition not met
Cc1ccccc1C(C)C1(C(O)c2ccccn2)CCC1 (stereo not drawn) [Example 45]: Condition not met
OC(c1ccccn1)C1(c2ccc(F)c(Cl)c2)CC2(C1)OCCO2 (stereo not drawn) [Example 255]: Condition not met

hey, is IC50 for OC(c1ccccn1)C1(c2cccc(OC(F)(F)F)c2)CCNCC1 (stereo not drawn) [Example 148] lower than 0.8 µM or not? Condition not met

hey, is IC50 for CC(C)(C)OC(=O)N1CCC(C2(C(O)c3ccccn3)CCC2)CC1 (stereo not drawn) [Example 279] lower than 0.8 µM or not? Condition not met

hey, is IC50 for OC1CC(c2ccnc(C(F)(F)F)c2)(C(O)c2ccccn2)C1 (stereo not drawn) [Example 306] lower than 0.8 µM or not? Condition met

hey, is IC50 for OC(c1ccccn1)C1(c2ccc(Cl)c(Cl)c2)CCNCC1 (stereo not drawn) [Example 140] lower than 0.8 µM or not? Condition not met

hey, is IC50 for OC(c1ccccn1)C1(c2ccc(Oc3ccccc3)cc2)CCC1 (stereo not drawn) [Example 24] lower than 0.8 µM or not? Condition not met

hey, is IC50 for OC(c1ccccn1)C1(c2ccccc2OC(F)(F)F)CCCO1 (single isomer, unassigned) [Example 97] lower than 0.8 µM or not? Condition met

hey, is IC50 for Cc1cc(C(F)(F)F)cc(C2([C@@H](O)c3ccccn3)CC(=O)C2)n1 [Example 291] lower than 0.8 µM or not? Condition not met

hey, is IC50 for OC(c1ccccn1)C1(c2ccccc2F)CCC1 (stereo not drawn) [Example 1] lower than 0.8 µM or not? Condition not met

###

Exercise: for every item that follows, state its recorded HUMAN MICROSOMAL STABILITY (% REMAINING AFTER 30 MINUTES).
Assay: In vitro human microsomal stability assay
Assay type: in vitro ADME
Settings: human, microsomes, 0.5 h, 0.5 μM, pH 7.4
Method: Test compounds were evaluated for metabolic stability in an in vitro rat microsomal stability assay using rat liver microsomes (Sprague-Dawley, from BD Biosciences) and/or an in vitro human microsomal stability assay using human liver microsomes (Xenotech). […] Incubations were carried out at 37° C. with a final incubation volume of 135 μL. […] A 1.5 μL aliquot of reduced nicotine adenine disphosphonucleotide (NADPH) (Chem-Impex Int'L Inc., Lot 12532024) was also added to the time-zero plates.
One number for each entry, in %.

OC(c1ccccn1)C1(c2cccc(C(F)(F)F)c2)CCC1 (stereo not shown): 1.2

Fill in: HUMAN MICROSOMAL STABILITY (% REMAINING AFTER 30 MINUTES) of OC(c1ccccn1)C1(c2cccc(OC(F)(F)F)c2)CCCO1 (single isomer, unassigned) [Example 93] is ___ 12

###

Exercise: for every item that follows, state its recorded HUMAN MICROSOMAL STABILITY (% REMAINING AFTER 30 MINUTES).
Assay: In vitro human microsomal stability assay
Format: in vitro ADME
Conditions: human, microsomes, 0.5 h, 0.5 μM, pH 7.4
Answers are plain numbers, in %.

O[C@@H](c1ncccn1)C1(c2ccc(Cl)c(Cl)c2)CCC1: 68
Nc1cccnc1C(O)C1(c2cccc(OC(F)(F)F)c2)CCC1 (stereo not drawn): 1.6
OC(c1ccccn1)C1(c2nc3ccccc3o2)CCC1 (stereo not drawn): 62
OC(c1ccccn1)C1(c2ccc(Cl)c(C(F)(F)F)c2)CC(F)(F)C1 (stereo not drawn): 41
OC(c1ccccn1)C1(c2ccc(Cc3ccccc3)cc2)CCC1 (stereo not drawn): 21
Nc1cccnc1C(O)C1(c2ccc(Cl)c(Cl)c2)CCC1 (stereo not drawn): 4.0
OC(c1ccccn1)C1(c2ccc(F)c(F)c2)CCC1 (stereo not drawn): 19
O/N=C(\c1ccccn1)C1(c2ccc(Cl)c(Cl)c2)CCC1: 33

Batch: HUMAN MICROSOMAL STABILITY (% REMAINING AFTER 30 MINUTES) for all items listed.
1. CC1(O)CC(c2cncc(C(F)(F)F)c2)(C(O)c2ccccn2)C1 (single isomer, unassigned) [Example 308]
2. OC(c1ccccn1)C1(c2ccc(F)c(F)c2)CCCO1 (single isomer, unassigned) [Example 108]
3. OC(C1CCc2cccnc21)C1(c2ccc(F)c(F)c2)CCC1 (stereo not drawn) [Example 171]

41
13
2.7

Batch: HUMAN MICROSOMAL STABILITY (% REMAINING AFTER 30 MINUTES) for all items listed.
1. OC1CC(c2cccc(OC(F)(F)F)c2)(C(O)c2ccccn2)C1 (single isomer, unassigned) [Example 272]
2. O=C1CC(c2cncc(C(F)(F)F)c2)([C@H](O)c2ccccn2)C1

1. 54
2. 67

###

Assay: In vitro human microsomal stability assay
Type: in vitro ADME
Settings: human, microsomes, 0.5 h, 0.5 μM, pH 7.4
Value Type: HUMAN MICROSOMAL STABILITY (% REMAINING AFTER 30 MINUTES) (%)
Give bare numbers, in %.

OC(c1ccccn1)C1(c2ccc(Cl)c(Cl)c2)CCCO1 (single isomer, unassigned) [Example 99]: 30

Batch: HUMAN MICROSOMAL STABILITY (% REMAINING AFTER 30 MINUTES) for all items listed.
1. O[C@@H](c1ncccn1)C1(c2ccc(C(F)(F)F)cc2)CCC1
2. O[C@H](c1ccccn1)C1(c2ccc(C(F)(F)F)cc2F)CCC1
3. CC1(O)CC(c2cccc(C(F)(F)F)c2)(C(O)c2ccccn2)C1 (single isomer, unassigned) [Example 236]
4. OC(c1ccccn1)C1(c2cc(C(F)(F)F)cc(C(F)(F)F)c2)CCC1 (stereo not drawn)

1. 50
2. 13
3. 54
4. 7.4

Batch: HUMAN MICROSOMAL STABILITY (% REMAINING AFTER 30 MINUTES) for all items listed.
1. Cc1ccccc1C(C)C1(C(O)c2ccccn2)CCC1 (stereo not drawn)
2. COc1ccnc(C(O)C2(c3ccc(Cl)c(Cl)c3)CCC2)c1 (stereo not drawn)
3. NC1CCCC1C(O)C1(c2ccc(OC(F)(F)F)cc2)CCC1 (stereo not drawn)
4. OC(c1ccccn1)C1(c2ccccc2C(F)(F)F)CCC1 (stereo not drawn)

1. 0.03
2. 4.2
3. 83
4. 0.27

Batch: HUMAN MICROSOMAL STABILITY (% REMAINING AFTER 30 MINUTES) for all items listed.
1. O=C1CC(c2cccc(C(F)(F)F)c2)(C(O)c2ccccn2)C1 (stereo not drawn)
2. OC(C1CCc2cccnc21)C1(c2ccc(Cl)c(Cl)c2)CCC1 (stereo not drawn) [Example 168]

[57, 5.6]

Cited source: patent US8772499B2
